# Measurement protocol: Microsomal clearance, mouse liver microsomes
# Assay type: in vitro ADME
# Condition info: mouse, mice, from microsomal clearance, read-out: estimated maximal bioavailability
# Protocol: Human or mice microsome clearance experiment were carried out as according to a previously describe protocol. Briefly, microsome preparation (0.5 mg/mL) plus cofactor NADPH solution was incubated with 1 μM of WOBE437 in 96-well plates at 37° C. […] The calculated slope is used to determine the intrinsic clearance. Data are obtained from single experiments measured with multiple time-points.
Measure name: bioavailability at 1 μM (%)
Hi! Could you send only the number? It should be in %, unit omitted.

bioavailability at 1 μM reading for CCCCCCC/C=C/C=C/C(=O)NCCc1ccc(OC)c(OC)c1 [WOBE437] : 17
